- system_name: T1, human CD47 on cells (SHP-77 tumor cells, human red blood cells, CCRF-CEM cells, human CD47 CHO-K1 stable cell … (human, UniProt Q08722 19-323))
- T1 construct: whole, on cells; also called RBC
- assay_protocol: flow cytometry on SHP-77 cells
endpoint: EC50
Include the unit right after the number.

Some binders with recorded EC50:
binder="108VH5.M24 / 108VL1.M5 (antibody, human IgG4 S228P, kappa, V domains shown, Full-length IgG4 (S228P), kappa; also called VH5.M24 VL1.M5) VH: EVQLVQSGAEVKKPGASVKVSCKASGYTFTHHWMHWVRQAPGQGLEWMGMIDASDLETRYAQKFQGRVTMTRDTSTSTVYMELSSLRSEDTAVYYCARLGRYYFDYWGQGTLVTVSS VL: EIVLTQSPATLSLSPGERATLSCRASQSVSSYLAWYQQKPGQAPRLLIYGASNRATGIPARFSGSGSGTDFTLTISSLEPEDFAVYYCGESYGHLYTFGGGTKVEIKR" endpoint=EC50 value_measured="9.8 nM"
binder="108VH10.Mk / 108VL10.Me (antibody, V domains shown, 4D5-framework series; also called VH10.Mk VL10.Me) VH: EVQLVESGGGLVQPGGSLRLSCAASGFTFSHHWIHWVRQAPGKGLEWVAMIDASDSETRLSQKVKDRFTISADTSKNTAYLQMNSLRAEDTAVYYCSRLGRYYFDYWGQGTLVTVSS VL: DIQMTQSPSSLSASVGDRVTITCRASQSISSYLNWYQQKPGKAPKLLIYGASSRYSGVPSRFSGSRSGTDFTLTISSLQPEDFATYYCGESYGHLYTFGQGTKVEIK" endpoint=EC50 value_measured="5.3 nM"

Let us move to another entry and its EC50.
Which EC50 reading was recorded for the binder 108VH5.M27 / 108VL1.M5 (antibody, human IgG4 S228P, kappa, V domains shown, Full-length IgG4 (S228P), kappa; also called VH5.M27 VL1.M5) VH: EVQLVQSGAEVKKPGASVKVSCKASGYTFTHHWMHWVRQAPGQGLEWMGMIDASDYETRYAQKFQGRVTMTRDTSTSTVYMELSSLRSEDTAVYYCARLGRYYFDYWGQGTLVTVSS VL: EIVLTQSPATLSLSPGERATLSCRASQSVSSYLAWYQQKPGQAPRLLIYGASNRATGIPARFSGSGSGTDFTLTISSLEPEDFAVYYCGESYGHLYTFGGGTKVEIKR ? 9 nM
